Molecular target: Beta-2 adrenergic receptor (Homo sapiens) (UniProt P07550)
Sequence (P07550 whole entry, looked up): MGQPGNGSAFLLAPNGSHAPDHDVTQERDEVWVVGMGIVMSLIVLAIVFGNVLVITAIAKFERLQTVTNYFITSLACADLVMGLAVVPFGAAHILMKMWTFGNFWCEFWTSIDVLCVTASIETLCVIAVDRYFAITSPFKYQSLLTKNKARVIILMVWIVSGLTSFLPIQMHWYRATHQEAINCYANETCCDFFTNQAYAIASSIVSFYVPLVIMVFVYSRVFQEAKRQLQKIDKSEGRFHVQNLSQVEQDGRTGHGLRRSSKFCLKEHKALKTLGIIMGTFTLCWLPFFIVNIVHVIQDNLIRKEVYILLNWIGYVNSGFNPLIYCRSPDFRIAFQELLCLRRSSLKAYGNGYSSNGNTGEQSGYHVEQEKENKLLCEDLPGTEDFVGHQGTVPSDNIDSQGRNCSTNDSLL
Assay: agonist-induced loss of surface beta2AR – cell-based, FAP fluorogen, flow cytometry, validation set, pilot screen (AID 504459);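 further: agonist-driven loss of surface beta2AR via internalization measured by FAP dye flow cytometry; reference of the scale not given here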
Conditions: Am2.2-beta2AR cells, at 10 µM, hits give high values
Active and inactive are the calls of the source.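 How the source made its calls: active means percent response above 42, roughly 3 SD of non-fluorescent test compounds; inactive means the rest.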
MEASUREMENT_KIND: response

INSERT INTO assay_data (molecule, result) VALUES
  ('CC1(C)CC(=O)C2=C(C1)c1c(ccc3ccccc13)NC2c1ccco1 (configuration not stated)', '14.4% (inactive)'),
  ('CCN(CC)CC#CCOC(=O)C(O)(c1ccccc1)C1CCCCC1 (configuration not stated)', '14.8% (inactive)'),
  ('COc1c(O)ccc2c1CN1CCc3cc4c(cc3C1C2)OCO4 (configuration not stated)', '24.6% (inactive)'),
  ('CC(C)COC(=O)C1C(=O)CC(C)(O)C(C(=O)OCC(C)C)C1c1cccnc1 (configuration not stated)', '-11.2% (inactive)'),
  ('Cn1c(=O)c2nc3ccccc3nc2n(C)c1=O', '-7.58% (inactive)'),
  ('O=C1NC(=O)C(c2ccccc2)(c2ccccc2)N1', '5.51% (inactive)'),
  ('CC1=NN(c2ccccc2)C(=O)C1', '3.52% (inactive)'),
  ('CCCCOC(=O)c1ccc(N)cc1', '-7.71% (inactive)');

For each of the items listed, what is its response?
1. COc1ccc(C2C3=C(CC(C)(C)CC3=O)N(C)C3=C2C(=O)CC(C)(C)C3)cc1
2. c1coc(-c2nnc3n2C2(CCCC2)Cc2ccccc2-3)c1
3. CN1C(C(=O)Nc2ccccn2)=C(O)c2sccc2S1(=O)=O
4. O=C(O)/C=C/c1cnc[nH]1

RESULT:
-20.5% (inactive)
-2% (inactive)
4.21% (inactive)
-4.55% (inactive)
